Substrate: CC(=O)C=O
test-protocol: purified protein, by the assay type
measurement-context: other: methylglyoxal 1.3-30 mM, 0.2 mM NADPH, pH 7.5, 37° C.
observable: Km (mM)
Give your result in mM as a bare value.

{"columns": ["protein", "Km [mM]"],
 "data": [
  ["E. coli YqhD variant YqhD*(G149S A286T) (Escherichia coli K-12; A286T/G149S) (protein) MNNFNLHTPTRILFGKGAIAGLREQIPHDARVLITYGGGSVKKTGVLDQVLDALKGMDVLEFGGIEPNPAYETLMNAVKLVREQKVTFLLAVGGGSVLDGTKFIAAAANYPENIDPWHILQTGGKEIKSAIPMGCVLTLPATGSESNASAVISRKTTGDKQAFHSAHVQPVFAVLDPVYTYTLPPRQVANGVVDAFVHTVEQYVTKPVDAKIQDRFAEGILLTLIEDGPKALKEPENYDVRANVMWAATQALNGLIGAGVPQDWATHMLGHELTAMHGLDHAQTLTIVLPALWNEKRDTKRAKLLQYAERVWNITEGSDDERIDAAIAATRNFFEQLGVPTHLSDYGLDGSSIPALLKKLEEHGMTQLGENHDITLDVSRRIYEAAR", 3.28],
  ["E. coli YqhD variant YqhD*(G149S) (Escherichia coli K-12; G149S) (protein) MNNFNLHTPTRILFGKGAIAGLREQIPHDARVLITYGGGSVKKTGVLDQVLDALKGMDVLEFGGIEPNPAYETLMNAVKLVREQKVTFLLAVGGGSVLDGTKFIAAAANYPENIDPWHILQTGGKEIKSAIPMGCVLTLPATGSESNASAVISRKTTGDKQAFHSAHVQPVFAVLDPVYTYTLPPRQVANGVVDAFVHTVEQYVTKPVDAKIQDRFAEGILLTLIEDGPKALKEPENYDVRANVMWAATQALNGLIGAGVPQDWATHMLGHELTAMHGLDHAQTLAIVLPALWNEKRDTKRAKLLQYAERVWNITEGSDDERIDAAIAATRNFFEQLGVPTHLSDYGLDGSSIPALLKKLEEHGMTQLGENHDITLDVSRRIYEAAR", 3.37]
]}

Report Km for E. coli YqhD variant YqhD*(G149E) (Escherichia coli K-12; G149E) (protein) MNNFNLHTPTRILFGKGAIAGLREQIPHDARVLITYGGGSVKKTGVLDQVLDALKGMDVLEFGGIEPNPAYETLMNAVKLVREQKVTFLLAVGGGSVLDGTKFIAAAANYPENIDPWHILQTGGKEIKSAIPMGCVLTLPATGSESNAEAVISRKTTGDKQAFHSAHVQPVFAVLDPVYTYTLPPRQVANGVVDAFVHTVEQYVTKPVDAKIQDRFAEGILLTLIEDGPKALKEPENYDVRANVMWAATQALNGLIGAGVPQDWATHMLGHELTAMHGLDHAQTLAIVLPALWNEKRDTKRAKLLQYAERVWNITEGSDDERIDAAIAATRNFFEQLGVPTHLSDYGLDGSSIPALLKKLEEHGMTQLGENHDITLDVSRRIYEAAR
7.80
